Would you mind telling me the reported protein stability index of each entry?
B1: TOR1AIP2 (parent)
chain: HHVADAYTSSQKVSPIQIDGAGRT

variants of: B1; assay: protein stability index of a GFP-peptide fusion (GPS, HEK-293T) (PSI 1-6); higher = more stable; settings: c terminus: a fixed tail appended;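 further: lentivirally expressed fusions sorted by FACS into six bins by GFP to DsRed ratio, PSI derived from sequencing read proportions per bin multiplied by bin number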
Simply state the number, no unit and no words.

IN: Requested field: protein stability index. Item: A6S
OUT: 4.14

IN: Find the recorded protein stability index belonging to K12E and report it.
OUT: 3.84

IN: Give the measured protein stability index of G20Y .
OUT: 2.83

IN: What value of protein stability index has been reported for the following variant? A21L
OUT: 3.42

IN: Please report the recorded protein stability index for I18D .
OUT: 4.28

IN: Please give the measured protein stability index for this variant: I16Q
OUT: 3.69

IN: Requested read-out: protein stability index. Entry: Y7L
OUT: 4.55

IN: Record request: protein stability index value, item D19G
OUT: 3.4

IN: # protein stability index lookup, item S10T
OUT: 3.28

IN: Look up protein stability index: T24S
OUT: 3.58

IN: Look up protein stability index: A21H
OUT: 3.7
